Origin of measurements: PubChem BioAssay AID179

# Test system: CEM cells HIV-1 protection, formazan growth assay
# procedure text: NCI AIDS Antiviral Assay
# particulars: measured here: growth of uninfected CEM cells
property name: pIC50
Give bare numbers, as −log10 of the molar value.

{"columns": ["compound", "target or test system", "property name", "val"],
 "data": [
  ["O=Nc1ccc(O)cc1O", "CEM cells HIV-1 protection, formazan growth assay", "pIC50", 3.83],
  ["O=C(CC1=NC2NN(c3ccccc3)C(=O)C2=C1CC(=O)c1ccccc1)c1ccccc1 (stereo unspecified)", "CEM cells HIV-1 protection, formazan growth assay", "pIC50", 3.76],
  ["NC(=S)NN=C1Cc2ccccc2C1", "CEM cells HIV-1 protection, formazan growth assay", "pIC50", 3.84],
  ["O=C1c2ccccc2Sc2ccccc2N1CCCCCN1CCN(c2ccc(F)cc2)CC1", "CEM cells HIV-1 protection, formazan growth assay", "pIC50", 5.05],
  ["CN1CCN(C)c2nc3ccccc3nc21", "CEM cells HIV-1 protection, formazan growth assay", "pIC50", 4.06],
  ["CSc1c(C(=O)Nc2ccccc2)c(N)nn1-c1ccccc1", "CEM cells HIV-1 protection, formazan growth assay", "pIC50", 4.15],
  ["O=C(Cc1nccc2c1[nH]c1ccccc12)OC1C#CCSCC#C/C=C\\1 (stereo unspecified)", "CEM cells HIV-1 protection, formazan growth assay", "pIC50", 4.55]
]}

May I ask what pIC50 has been recorded for "CC(=O)[C-](C)C(C)=O.CC(=O)[C-](C)C(C)=O.NCCNCCNC(=O)c1cccc2nc3ccccc3nc12.[Cl-].[Co+3]" ?
4.50
